Experimental System: HLA-B*27:05
Test Name: IEDB peptide-MHC binding, purified MHC/competitive/fluorescence; filed as Kd, often an IC50 or EC50 that approximates it; bounds were set here for any values at or beyond the usual limits of such assays
Measurement Conditions: source organism: Orthohantavirus dobravaense
Reported Property: Kd (nM)
Field: numeric (nM). Do not append units.

-- ask Need Kd, item MRNTIMASK
-- reply 144

----------
Experimental System: HLA-A*11:01
Test Name: IEDB peptide-MHC binding, purified MHC/direct/fluorescence; filed as Kd, often an IC50 or EC50 that approximates it; bounds were set here for any values at or beyond the usual limits of such assays
Measurement Conditions: source organism: Orthomarburgvirus marburgense
pKd: −log10 of the molar value.
Reported Property: pKd

-- ask # pKd lookup, item LEHGLYPQL
-- reply ≤ 4.70

----------
Experimental System: HLA-A*29:02
Test Name: IEDB peptide-MHC binding, purified MHC/direct/fluorescence; filed as Kd, often an IC50 or EC50 that approximates it; bounds were set here for any values at or beyond the usual limits of such assays
Measurement Conditions: source organism: Orthohantavirus andesense
Reported Property: Kd

-- ask Any idea what Kd was measured for IQNALEKAL ?
-- reply ≥ 20 µM

----------
Experimental System: HLA-A*24:02
Test Name: IEDB peptide-MHC binding, purified MHC/competitive/radioactivity; filed as Kd, often an IC50 or EC50 that approximates it; bounds were set here for any values at or beyond the usual limits of such assays
Measurement Conditions: source organism: Dengue virus 3 Martinique/1243/1999
Reported Property: Kd (nM)
Give the number; nM is assumed, so skip it.

-- ask // returns reported Kd for input RFANALLAL
-- reply 689

-- ask Returns the measured Kd for the input sequence. Input: RYLEFEALGF
-- reply 38.1

-- ask Need Kd of MFKKRNLTI , thanks.
-- reply 158

----------
Experimental System: HLA-A*24:02
Test Name: IEDB peptide-MHC binding, purified MHC/competitive/radioactivity; filed as Kd, often an IC50 or EC50 that approximates it; bounds were set here for any values at or beyond the usual limits of such assays
Measurement Conditions: source organism: Lassa virus GA391
Reported Property: Kd (µM)
Numbers only here, please. The scale is µM.

-- ask Which Kd reading was recorded for the sequence YCNYSRYWYL ?
-- reply 3.28

----------
Experimental System: HLA-A*69:01
Test Name: IEDB peptide-MHC binding, purified MHC/competitive/fluorescence; filed as Kd, often an IC50 or EC50 that approximates it; bounds were set here for any values at or beyond the usual limits of such assays
Measurement Conditions: source organism: Vibrio parahaemolyticus AQ3810
pKd: −log10 of the molar value.
Reported Property: pKd

-- ask # query: pKd of entry MLTNASGHA
-- reply ≤ 4.70

----------
Experimental System: HLA-A*02:03
Test Name: IEDB peptide-MHC binding, purified MHC/competitive/radioactivity; filed as Kd, often an IC50 or EC50 that approximates it; bounds were set here for any values at or beyond the usual limits of such assays
Measurement Conditions: source organism: SARS coronavirus Tor2
Assignment: determine reported pKd for the given sequences.
Units for pKd: none; it is -log10 of a concentration expressed in mol/L.

-- ask Any idea what its pKd is? The sequence is FLLPSLATV
-- reply 9.69

-- ask Record request: pKd value, item FVFNGTSWFI
-- reply 8.67

-- ask Fill in: pKd of IIFWFSLEI is ___
-- reply 7.06

-- ask Recorded pKd for ALVFLILCFT , please?
-- reply 5.95

-- ask Which pKd value is on record for FVDEFYAYL ?
-- reply 8.58

-- ask Report pKd for TLMNVITLV please.
-- reply 9.60

-- ask Please report the recorded pKd for ALLADKFPV .
-- reply 6.22

-- ask # input sequence: KLIEYSDFA ; wanted: its pKd
-- reply 9.27

-- ask Entry SLPSYAAYA has what pKd?
-- reply 8.59
